Test Target: 5-hydroxytryptamine receptor 1A (Homo sapiens)
Sequence (whole entry): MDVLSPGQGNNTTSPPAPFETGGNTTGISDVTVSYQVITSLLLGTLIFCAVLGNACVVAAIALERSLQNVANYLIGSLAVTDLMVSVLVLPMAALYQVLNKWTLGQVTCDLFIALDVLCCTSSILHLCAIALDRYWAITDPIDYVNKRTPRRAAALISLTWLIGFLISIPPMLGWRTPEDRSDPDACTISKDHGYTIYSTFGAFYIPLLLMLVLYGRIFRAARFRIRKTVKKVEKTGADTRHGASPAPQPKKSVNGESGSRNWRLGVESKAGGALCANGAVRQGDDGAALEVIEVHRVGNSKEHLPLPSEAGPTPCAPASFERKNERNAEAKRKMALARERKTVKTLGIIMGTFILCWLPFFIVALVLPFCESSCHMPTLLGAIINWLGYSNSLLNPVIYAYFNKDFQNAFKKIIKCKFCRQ
Method Summary: Intrinsic activity at human 5HT1A receptor expressed in CHO cells by [S35]GTPgammaS binding assay relative to serotonin
Type: functional, cell-based
Outcome Measure: Intrinsic activity

QUERY: Supply reported Intrinsic activity belonging to this molecule: `Cc1ccc2c(N3CCN(CCc4cc5c(cc4F)OCC(=O)N5)CC3)cccc2n1`
RESULT: 0.2

QUERY: Recall and state the measured Intrinsic activity for `Cc1cc2c(N3CCN(CCc4ccc5c(c4)NC(=O)CO5)CC3)cccc2[nH]1` .
RESULT: 0.3

QUERY: Answer with the recorded Intrinsic activity for the molecule listed here: `Cc1ccc2c(N3CCN(CCc4ccc5c(c4)NC(=O)CO5)[C@H](C)C3)cccc2n1`
RESULT: 0

QUERY: Provide only the value of recorded Intrinsic activity for Cc1ccc2c(N3CCN(CCc4ccc5c(c4)NC(=O)CO5)CC3C)cccc2n1 (stereo not given)
RESULT: 0.2

(A) Cc1ccc2c(N3CCN(CCc4ccc5c(c4)NC(=O)CO5)CC3)cc(F)cc2n1
(B) Cc1ccc2c(N3CCN(CCc4ccc5c(c4)NC(=O)CO5)CC3)ccc(Cl)c2n1
QUERY: Lower Intrinsic activity: A or B ? Returns: label corresponding to the selected item.
RESULT: A
(A: 0, B: 0.7)

(I) Cc1ccc2c(N3CCN(CCc4ccc5c(c4)NC(=O)CO5)CC3)ccc(F)c2n1
(II) CCN1C(=O)COc2ccc(CCN3CCN(c4cccc5nc(C)ccc45)CC3)cc21
(III) Cc1ccc2c(N3CCN(CCc4ccc5c(c4)N(C)C(=O)CO5)CC3)cccc2n1
QUERY: Parameters: sort_field (Intrinsic activity), sort_dir (desc). Your reply should list the labels following the order given in the request.
RESULT: III, I, II

----------
Method Summary: Blood Clearance in rat at 0.5 mg/kg, iv and 1 mg/kg, po
Type: ADME, organism-based
Recorded Conditions: whole blood
Outcome Measure: clearance (mL/min/kg)

QUERY: Supply reported clearance belonging to this molecule: `Cc1ncc2c(N3CCN(CCc4ccc5c(c4)NC(=O)CO5)CC3)cccc2n1`
RESULT: 4

(a) Cc1ccc2c(N3CCN(CCc4ccc5c(c4)NC(=O)CO5)CC3)cccc2n1
(b) Cc1ccc2c(N3CCN(CCc4ccc5c(c4)N(C)C(=O)CO5)CC3)cccc2n1
QUERY: Form field 'greater clearance' accepts a or b ; which applies? Indicate which entry you chose by stating its label.
RESULT: b
(b: 8 mL/min/kg, a: 5 mL/min/kg)
